target: Kappa-type opioid receptor (Homo sapiens, UniProt P41145); assay type: functional
Sequence (P41145 whole entry): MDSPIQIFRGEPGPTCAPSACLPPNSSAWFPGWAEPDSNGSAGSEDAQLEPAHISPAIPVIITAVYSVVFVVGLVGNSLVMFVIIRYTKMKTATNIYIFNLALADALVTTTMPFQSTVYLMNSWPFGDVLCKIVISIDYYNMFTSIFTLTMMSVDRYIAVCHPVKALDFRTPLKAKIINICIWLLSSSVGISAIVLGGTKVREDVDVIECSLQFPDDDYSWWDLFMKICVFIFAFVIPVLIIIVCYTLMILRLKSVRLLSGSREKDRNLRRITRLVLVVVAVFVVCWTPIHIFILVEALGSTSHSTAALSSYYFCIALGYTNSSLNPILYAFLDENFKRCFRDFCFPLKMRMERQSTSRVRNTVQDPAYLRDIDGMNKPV
MEASURED_METRIC: IC50 (µM)

> print(dat)
                                smiles.repr                            assayed.system  censoring.operator  recorded.number
1  CCC(=O)OCCNc1cc(Sc2nc3ccccc3s2)c2nonc2c1[N+](=O)[O-]  Kappa-type opioid receptor (Homo sapiens, UniProt P41145)                   >               32
2  CC(=O)OCCNc1cc(Sc2nc3ccccc3[nH]2)c2nonc2c1[N+](=O)[O-]  Kappa-type opioid receptor (Homo sapiens, UniProt P41145)                   =             17.1

---

Target: Mannose-6-phosphate isomerase (Homo sapiens, UniProt P34949)
Sequence (P34949 whole entry): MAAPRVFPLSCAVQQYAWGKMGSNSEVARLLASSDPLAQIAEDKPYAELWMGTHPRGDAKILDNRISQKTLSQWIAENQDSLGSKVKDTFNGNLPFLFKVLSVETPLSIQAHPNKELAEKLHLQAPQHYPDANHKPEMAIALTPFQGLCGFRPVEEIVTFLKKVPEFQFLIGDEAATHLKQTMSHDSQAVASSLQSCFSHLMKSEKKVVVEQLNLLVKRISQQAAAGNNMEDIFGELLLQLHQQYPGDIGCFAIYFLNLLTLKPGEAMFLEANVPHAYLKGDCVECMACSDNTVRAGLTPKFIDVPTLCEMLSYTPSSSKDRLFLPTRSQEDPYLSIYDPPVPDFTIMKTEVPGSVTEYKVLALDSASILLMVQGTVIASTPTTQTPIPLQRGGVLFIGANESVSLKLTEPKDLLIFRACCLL
Test: MPI inhibition at elevated mannose 6-phosphate – biochemical, fluorescence intensity, high mannose 6-phosphate, primary screen (AID 1220)
Calls of active or inactive are those of the source.
MEASURED_METRIC: IC50

> print(dat)
                                smiles.repr  measured.metric                result
1                CNCc1ccccc1Sc1ccc(O)c(O)c1             IC50      25.9 µM (active)
2  COc1ccc(-n2c(=S)[nH]c3sc4c(c3c2=O)CCc2ccccc2-4)cc1             IC50      25.7 µM (active)
3  O=C(O)c1cc(N2N=C(C(F)(F)F)/C(=C/C=C/c3ccco3)C2=O)ccc1Cl             IC50  > 50 µM (not active)

---

biological target: Streptokinase A (Streptococcus pyogenes serotype M1); assay: viability-normalized secreted streptokinase activity reduction – plasminogen activation absorbance, OD405, dose response (AID 1914); format: functional, Streptococcus pyogenes M1 GAS;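 further: secreted streptokinase activity via plasminogen activation per viability signal from cell pellet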
Sequence (P10520 whole entry): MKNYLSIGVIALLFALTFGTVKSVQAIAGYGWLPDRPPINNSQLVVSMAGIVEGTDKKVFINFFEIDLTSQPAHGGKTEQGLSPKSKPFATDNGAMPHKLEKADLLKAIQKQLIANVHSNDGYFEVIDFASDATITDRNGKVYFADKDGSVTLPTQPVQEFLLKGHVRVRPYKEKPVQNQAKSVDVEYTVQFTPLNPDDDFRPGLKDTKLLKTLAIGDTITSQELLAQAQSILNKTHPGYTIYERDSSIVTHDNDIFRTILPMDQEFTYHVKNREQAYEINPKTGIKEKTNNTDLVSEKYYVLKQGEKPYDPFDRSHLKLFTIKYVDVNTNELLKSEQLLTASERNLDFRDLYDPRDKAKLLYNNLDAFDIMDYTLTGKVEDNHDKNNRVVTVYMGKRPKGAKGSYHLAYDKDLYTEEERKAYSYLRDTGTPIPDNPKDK
Active and inactive are the calls of the source.
MEASURED_METRIC: EC50

> print(dat)
                                    compound                 result
 1  CC(C)(C)c1cc(C(=O)N/N=C/c2ccc([N+](=O)[O-])s2)[nH]n1  > 150 µM (not active)
 2  CN1c2ccccc2C(C)(C)C12C=Nc1c(ccc3ccccc13)O2 (stereo not given)         24 µM (active)
 3  CC(C)(C)c1ccc(-c2noc(-c3ccc4c(c3)CCO4)n2)cc1         46 µM (active)
 4  CCCCCCn1c(=O)c(C(=O)Nc2c(C)n(C)n(-c3ccccc3)c2=O)c(O)c2ccccc21       3.63 µM (active)
 5      O=C(Nc1cccc(Cl)c1N1CCCC1)c1ccc(Br)o1  > 150 µM (not active)
 6  O=C(Nc1ccc2[nH]c(-c3ccc4[nH]cnc4c3)nc2c1)c1cccs1  > 150 µM (not active)
 7  COc1ccc(-c2nnc(NC(=O)C3CCCN3S(=O)(=O)c3cccs3)o2)cc1 (stereo not given)  > 150 µM (not active)
 8  Cc1cc(C)nc(-n2nc(C)c(Sc3ccc(F)cc3)c2N)n1  > 150 µM (not active)
 9       COc1ccccc1OCCCn1c(C)c(C#N)c2ccccc21       23.2 µM (active)
10  O=C(CN1c2ccccc2Sc2ccccc21)NNC(=O)Nc1cccc(Cl)c1  > 150 µM (not active)
